# key: entry, value: LC50
assay: Toxicity in Artemia salina; assay type: organism-based; conditions: in vivo, read-out: LD50 (the source's name)
Observable: LC50 (µM)

CCCCCCC[C@@H](C/C=C/CCC(=O)NCCc1ccccc1)OC [HERMITAMIDE A] ... 5
CCCCCCC[C@@H](C/C=C/CCC(=O)NCCc1c[nH]c2ccccc12)OC [HERMITAMIDE B] ... 18

###

assay: Cytotoxicity against mouse Neuro2a cells after 24 hrs by MTT assay; assay type: cell-based; settings: N2a
# key: entry, value: IC50
Observable: IC50

CCCCCCC[C@@H](C/C=C/CCC(=O)N(C)C/C(=C/Cl)[C@]12O[C@H]1CC=C(C)C2=O)OC [MALYNGAMIDE N] ... 12 µM
CCCCCCC[C@@H](C/C=C/CCC(=O)NCCc1ccccc1)OC [HERMITAMIDE A] ... 2.2 µM
CCCCCCC[C@@H](C/C=C/CCC(=O)N(C)C/C(=C/Cl)c1cccc(C)c1O)OC [MALYNGAMIDE M] ... > 20 µM
CCCCCCC[C@@H](C/C=C/CCC(=O)NCCc1c[nH]c2ccccc12)OC [HERMITAMIDE B] ... 5.5 µM

###

test: Ichthyotoxicity to gold fish; format: organism-based; conditions: carassius auratus, in vivo; read-out: LD50 (the source's name)
Observable: LC50 (µM)

CCCCCCC[C@@H](C/C=C/CCC(=O)NCCc1ccccc1)OC [HERMITAMIDE A] ... 19
CCCCCCC[C@@H](C/C=C/CCC(=O)NCCc1c[nH]c2ccccc12)OC [HERMITAMIDE B] ... 25
